Hey, just so you know, these numbers are from the supplement of paper PMC4466140.

Experimental System: AgBem1-D1
Experimental Details: SPOT peptide array binding signal intensity (averaged, normalized) (arbitrary units (background-subtracted, floor 0; scale differs between SH3 domains)); higher = stronger binding of the SH3 domain to the peptide
Test Readout: SPOT peptide array binding signal intensity
// response body must contain only the number

Binder	Data Value
NNFYRPLLRSVLVLL	8
PKRRAPPPVPKKPSS	221

# context switch: different binder, same SPOT peptide array binding signal intensity
Fill blank: measured SPOT peptide array binding signal intensity of the binder VGFRLALKFPSRITG is ____.
596
